Target: CAIX-expressing human HT-29 colorectal cancer cells (Homo sapiens)
Construct: CAIX-expressing human HT-29 colorectal cancer cells; host or cells: HT-29 human colorectal cancer cells
Experiment: FACS binding assay (IC50 determination, competition with tracer 3BP-2776 or 3BP-4149)
Conditions: FACS binding assay, HT-29 cells, competition with tracer 3BP-2776 (10 nM, biotin-labeled), 4° C., 1 hour; read-out: pIC50 category (activity) (converted)
Starred links: 1 amine or outer side, 2 acyl side, 3 side chain; linkers in the order of their positions; H or OH if unused. Positions of bridges follow the written chain, without caps; N, C: chain ends. Non-standard residues stand in square brackets, D forms with d. Residues, ends and D or L forms follow the SMILES beside them. *: point of attachment. DOTA = O=C(O)CN1CCN(CC(=O)O)CCN(CC(=O)*)CCN(CC(=O)O)CC1; mXylylene = c1cc(C[*:1])cc(C[*:2])c1; X2 = O=C(CN1CCC(N[*:1])CC1)[*:2]
parameter: IC50

Task: Find the recorded IC50 belonging to CC(C)C[C@@H]1NC(=O)[C@H](Cc2c[nH]c3ccccc23)NC(=O)[C@H](CC(N)=O)NC(=O)[C@H]2CCCN2C(=O)[C@H](CCC(=O)O)NC(=O)[C@@H](NC(=O)[C@H](Cc2ccc(O)cc2)NC(=O)[C@@H](NC(=O)CN2CCC(NC(=O)CN3CCN(CC(=O)O)CCN(CC(=O)O)CCN(CC(=O)O)CC3)CC2)C(C)C)CSCc2cccc(c2)CSC[C@@H](C(N)=O)NC(=O)[C@H](CO)NC(=O)[C@H](Cc2c[nH]c3ccccc23)NC(=O)[C@H]([C@@H](C)O)NC1=O [3BP-4103] ({DOTA}-[X2]VYCE[dP]NWLTWSC-NH2; linker 4-13 via mXylylene) and report it.
Output: < 10 nM
